Data export: log10 Ki values recorded with Prothrombin (Homo sapiens, UniProt P00734).
quantityKind: log10 Ki (log10 of the value in µM)

{"columns": ["smilesText", "assayTarget", "quantityKind", "measuredResult"],
 "data": [
  ["O=S(=O)(Nc1cccc(OCCNc2ccncc2)c1)c1ccc(Cl)cc1", "Prothrombin (Homo sapiens, UniProt P00734)", "log10 Ki", -0.15],
  ["O=S(=O)(Nc1cccc(OCCNc2ccncc2)c1)c1ccc2ccccc2c1", "Prothrombin (Homo sapiens, UniProt P00734)", "log10 Ki", 0.85],
  ["O=C(CNS(=O)(=O)c1ccccc1)N[C@H](CCNc1ccncc1)C(=O)N1CCCCC1", "Prothrombin (Homo sapiens, UniProt P00734)", "log10 Ki", 1.00],
  ["N=C(N)c1ccc(COc2cccc(CCNS(=O)(=O)c3ccc(Cl)cc3)c2)cc1", "Prothrombin (Homo sapiens, UniProt P00734)", "log10 Ki", 0.18],
  ["O=C(CNS(=O)(=O)c1ccc2ccccc2c1)N[C@@H](CCNc1ccncc1)C(=O)N1CCCCC1", "Prothrombin (Homo sapiens, UniProt P00734)", "log10 Ki", 2.48]
]}

----------
Target: UniProt P00760
Sequence (P00760 whole entry): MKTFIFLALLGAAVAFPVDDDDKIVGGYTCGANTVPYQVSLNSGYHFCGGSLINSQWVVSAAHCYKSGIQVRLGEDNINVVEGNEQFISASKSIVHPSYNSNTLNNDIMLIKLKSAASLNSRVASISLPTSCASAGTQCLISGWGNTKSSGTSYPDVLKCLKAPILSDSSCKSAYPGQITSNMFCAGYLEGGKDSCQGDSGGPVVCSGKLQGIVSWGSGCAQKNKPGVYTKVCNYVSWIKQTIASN
The following compounds are shown together with reported Ki values.
quantityKind: Ki

{"columns": ["compound", "measuredResult"],
 "data": [
  ["CN(c1cccc(OCCNc2ccncc2)c1)S(=O)(=O)c1ccccc1", "> 500 µM"],
  ["N=C(N)c1ccc(COc2cccc(CCNS(=O)(=O)c3ccc(Cl)cc3)c2)cc1", "1.7 µM"],
  ["O=C(CNS(=O)(=O)c1ccc(Cl)cc1)N[C@H](CCNc1ccncc1)C(=O)N1CCCCC1", "> 500 µM"],
  ["OCCNc1ccncc1", "> 500 µM"],
  ["O=C(CNS(=O)(=O)c1ccc2ccccc2c1)N[C@@H](CCNc1ccncc1)C(=O)N1CCCCC1", "> 500 µM"],
  ["O=C(CNS(=O)(=O)c1ccc2ccccc2c1)N[C@H](CCNc1ccncc1)C(=O)N1CCCCC1", "> 500 µM"],
  ["Nc1ccncc1 [DALFAMPRIDINE]", "> 2000 µM"]
]}

----------
The following molecules are shown together with reported pKi values.
biological target: Prothrombin (Homo sapiens)
pKi: −log10 of the molar value.

{"columns": ["smilesText", "measurementQualifier", "pKi"],
 "data": [
  ["Nc1ccncc1", "<", 2.70],
  ["O=C(CNS(=O)(=O)c1ccc2ccccc2c1)N[C@H](CCNc1ccncc1)C(=O)N1CCCCC1", "=", 6.70],
  ["c1ccc(OCCNc2ccncc2)cc1", "=", 3.92]
]}

----------
pKi: −log10 of the molar value.
Data export: pKi values recorded with Plasminogen (Homo sapiens, UniProt P00747).
Sequence (P00747 97-580 limits assumed): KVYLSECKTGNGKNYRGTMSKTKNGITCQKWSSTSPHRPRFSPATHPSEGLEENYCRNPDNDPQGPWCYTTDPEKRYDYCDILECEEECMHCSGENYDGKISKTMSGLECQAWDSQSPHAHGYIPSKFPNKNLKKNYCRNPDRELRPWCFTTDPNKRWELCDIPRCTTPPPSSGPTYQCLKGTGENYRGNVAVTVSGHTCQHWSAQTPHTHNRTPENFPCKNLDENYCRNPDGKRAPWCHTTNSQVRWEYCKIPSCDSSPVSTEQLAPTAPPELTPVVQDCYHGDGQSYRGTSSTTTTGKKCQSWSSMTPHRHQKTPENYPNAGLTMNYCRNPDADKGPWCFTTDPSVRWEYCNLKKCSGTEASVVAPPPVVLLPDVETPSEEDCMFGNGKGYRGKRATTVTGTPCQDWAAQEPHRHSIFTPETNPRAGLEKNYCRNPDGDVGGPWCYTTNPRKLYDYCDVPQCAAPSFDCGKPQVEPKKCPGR
Sequence (P00747 581-810 limits assumed): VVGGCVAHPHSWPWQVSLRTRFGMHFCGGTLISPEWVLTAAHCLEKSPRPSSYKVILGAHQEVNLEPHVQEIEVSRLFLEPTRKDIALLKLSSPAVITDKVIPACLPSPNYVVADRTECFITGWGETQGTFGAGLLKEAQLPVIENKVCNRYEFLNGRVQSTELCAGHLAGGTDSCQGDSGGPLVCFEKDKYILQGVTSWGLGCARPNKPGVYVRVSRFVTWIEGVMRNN

{"columns": ["smilesText", "pKi"],
 "data": [
  ["O=C(CNS(=O)(=O)c1ccc2ccccc2c1)N[C@H](CCNc1ccncc1)C(=O)N1CCCCC1", "< 3.30"],
  ["O=C(CNS(=O)(=O)c1ccccc1)N[C@H](CCNc1ccncc1)C(=O)N1CCCCC1", "< 3.30"],
  ["Cc1cccc(OCCNc2ccncc2)c1", "< 3.30"],
  ["O=S(=O)(Nc1cccc(OCCNc2ccncc2)c1)c1ccc2ccccc2c1", "< 3.30"],
  ["N=C(N)c1ccc(COc2cccc(CCNS(=O)(=O)c3ccc(Cl)cc3)c2)cc1", 4.47]
]}
